Tested on: K4 kissing-loop RNA reporter;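 note: bound reporter read as fluorescence of individual clusters on recovered sequencing chips by microscopy, with normalized cluster intensities fitted with a binding model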
protocol_text: apparent KD of K4 kissing-loop reporter; higher = weaker reporter binding
measurement_context: Eterna round: R107; input ligand: arginine 13.2 mM
quantity_measured: apparent KD of K4 kissing-loop reporter (µM)
Could you give me the number in µM? Just the number is fine.

Below, 2 sequences whose answers are already recorded.
{"columns": ["query_sequence", "apparent KD of K4 kissing-loop reporter [µM]"],
 "data": [
  ["UGUGUACCGGGAAGGAGCGUGAAUGAUAAUGGAUAUAGUGAUGUUAUAUAUACGAACGAAUCGCAGGUAGGUCGCCCGGAUCCCU [SSArgB.X]", 0.494],
  ["AGACUACUGACAGGAUAUAACAUCCUGGUCGUAUACCGAAAGGUAUACGAUUUCCUUCUAGUGAUGUUAGAAGGGUCGGUAGUCA [Omei KL FMN B Exc B v14]", 0.078]
]}

// query apparent KD of K4 kissing-loop reporter value for entry CACCAUGAAUUCUCUAGGAGUGAUGUUUUUCGAGGACCGGUACGGCCGCCACUCGGACGAGGACCGUGGGAGCGGCGAAGCGGCU [?oegmullin] 0.0591

// query apparent KD of K4 kissing-loop reporter value for entry AGGAUCCACCAGUGAUGUUGGAAAUACAUCAAGGAUAUGACGAAAGUCAGAAGGUGGUAGACUGGACAAAGUCCAGUUGGAUCCA [KL-SSFMN-A18] 0.0549

// query apparent KD of K4 kissing-loop reporter value for entry AGAUUCGACACGGCCGCCACUCGUGGUGGAUUAUCCUAUGUAAGACAUGAGUGAUGUUCAUGUACGAGGACCGGGUGUUGAGUCU [KL-XTryp-B5 #analogue] 0.403

// query apparent KD of K4 kissing-loop reporter value for entry UGUAUGGACUGAAGGAGCGCUAGGAGUGUGAGUGAUGUUCAUACAAAUGUAUAGAUGGUCUGGCAGGUAGGUCGCAGUCCAUACU [KL-SSArg B4] 0.145

// query apparent KD of K4 kissing-loop reporter value for entry GCGCGUCAUGUCAGCGGUGACUACGUCGAUACCAGCAGGGAAACCUGCCCUUGGCAGCGACGCGCUGGAGUGAUGUUCCGACGGC [#2 Exclusion - Theophylline A Attempt #7 (HarryS)] 0.176

// query apparent KD of K4 kissing-loop reporter value for entry AAUAAUAAUAAAUAUAGAUUGAUGAGCAAACGAGGACCGGUACGGCCGCCACUCGAGUGAUGUUCGAGAAGCUCAUCAAUCAUAA [AK4.6 Exc Tryptophan A] 0.131

====

Test system: MS2 coat protein
protocol_text: apparent KD of MS2 coat protein; designed switch direction (-1 OFF switch, 1 ON switch): 1; higher = weaker reporter binding
measurement_context: Eterna round: R95; input ligand: microRNA oligo, concentration not stated
quantity_measured: apparent KD of MS2 coat protein (nM)
Could you give me the number in nM? Just the number is fine.

{"columns": ["query_sequence", "unit_text", "apparent KD of MS2 coat protein"],
 "data": [
  ["ACUUGCUUUUUGCUCGUAUAUUGUCCGUUACAUGAGGAUCACCCAUGUGUAUAUUAUGUGUUGUUUUUGAUACGUGU [JR_SHM208A_Sub069] (puzzle: Sensor for hsa-mir-208a)", "nM", 33.9],
  ["GGAGCCGGCACCGAGGAUAUUCAUAUUAAAACAUGAGGAUCACCCAUGUACCGGAGAACCGGUUGGGAGAAGGCGGAUCGGCUCG [Xeonanis - 24] (puzzle: Same State 2)", "nM", 333]
]}

// query apparent KD of MS2 coat protein value for entry AACAAUCUAUCUGAGGAUAUCAUGAAAUAAACAUGAGGAUCACCCAUGUGCAGGAAAACUGCAUAUGAGAAGGCAGAUAGAUUUA [salish99_ss2_r3_057] (puzzle: Same State 2) 638
